# target.entity: Salicylate synthase (Mycobacterium tuberculosis (strain CDC 1551 / Oshkosh)) (UniProt P9WFX0)
# Sequence (P9WFX0 whole entry, looked up): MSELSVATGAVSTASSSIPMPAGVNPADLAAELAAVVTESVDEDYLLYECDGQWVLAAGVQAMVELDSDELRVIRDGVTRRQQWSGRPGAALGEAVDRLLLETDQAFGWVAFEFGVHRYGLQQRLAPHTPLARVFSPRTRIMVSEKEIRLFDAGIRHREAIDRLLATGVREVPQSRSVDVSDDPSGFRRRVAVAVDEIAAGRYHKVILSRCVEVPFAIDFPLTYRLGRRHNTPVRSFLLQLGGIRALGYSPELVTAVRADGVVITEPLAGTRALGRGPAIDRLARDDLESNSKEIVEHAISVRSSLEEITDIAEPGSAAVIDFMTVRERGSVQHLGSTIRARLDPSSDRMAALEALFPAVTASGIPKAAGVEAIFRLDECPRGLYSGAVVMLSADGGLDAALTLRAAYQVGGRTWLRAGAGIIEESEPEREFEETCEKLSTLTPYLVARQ
# protocol: inhibitors of M. tuberculosis MbtI – biochemical, fluorescence intensity, primary screen (AID 493033)
# setup.conditions: purified MbtI enzyme, fluorescence intensity read-out, concentration not given here
About 930 (0.93%) of roughly 100,000 compounds were called active. Rule as the data show it: active = inhibition mostly above about 56% (no sharp cut-off); inactive = mostly below about 77%. The full list was thinned out, with actives kept by preference.
Possible outcomes: YES for active, NO for inactive

- CCCCN=Cc1c(O)n(-c2ccc(Cl)cc2)c(=O)[nH]c1=O: NO
- COc1ccccc1-c1nnc(Cc2ccc(F)cc2Cl)o1: NO
- COC(=O)c1cccc(OCC(O)CNC2CCN(Cc3ccccc3)CC2)c1 (centres undefined): NO
- O=C(Nc1cccc(Br)c1)C1CC(=O)N(C2CCCC2)C1 (centres undefined): NO
- Cc1ccc(-n2c(SC(C)C(=O)NC(N)=O)nc3ccccc32)cc1 (centres undefined): NO
- O=C(O)CCCN1C(=O)/C(=C2\SC(=S)N(CCCC(=O)O)C2=O)SC1=S: YES
- Cc1ccc(NC(=O)COC(=O)C2CCC2)cc1Cl: NO
- Cc1csc(/C(C#N)=N/OC(=O)c2ccco2)n1: NO
- C=C(C)CNC(=S)N1CCNCC1: NO
- Nn1c(SCC(=O)Nc2ccc(S(=O)(=O)N3CCCC3)cc2)nnc1-c1ccccc1: YES
- Cc1onc(-c2ccccc2)c1C(=O)Sc1ccc(C(F)(F)F)cn1: YES
- Cc1ccc(-c2nnc(SCc3c(C)cc(C)cc3C)o2)cc1: NO
- CCSc1nnc(SCC(=O)N2CC(=O)Nc3ccccc32)s1: NO
- CC(=O)Oc1ccc(N(C(C)=O)S(=O)(=O)c2ccc(Cl)cc2)cc1: NO
- O=C(CSc1nnc(-c2ccncc2)n1-c1ccccc1)Nc1ccccc1: NO
- Cn1c(SCc2nc(-c3cccs3)no2)nnc1-c1ccncc1: NO
- C=C(C)CNC(=S)NN: YES
- COc1ccc(Cc2nnc(SCC(=O)Nc3ccc(S(=O)(=O)N4CCCCCC4)cc3)o2)cc1: NO
- OC1CCN(C(=S)Nc2ccccc2)CC1: NO
